Quick reference: MIC of the listed items.
tested on: S. epi; assay: Minimum Inhibitory Concentration (MIC) of various carboxylic acids; format: cell-based; conditions: growth media pH 4.2; read-out: MIC S. epi pH 4.2
Give your result in µg/mL as a bare value.

The following compounds have reported results that may help.
• O=C(O)C(O)c1ccccc1 (centres unmarked) [Mandelic Acid] = 312
• O=C(O)CCCCCCCC(=O)O [Azelaic Acid, reference compound] = 125
• O=C(O)c1ccc(O)c(O)c1 [Protocatechuic Acid] = 500

Turning now to a further compound:
Q: So what's the measured MIC for this one? CCCCCCCC(=O)Oc1ccccc1C(=O)O [Capryloyl Salicylic Acid]
Ans: 4
